- TESTED_SYSTEM: Tubulin (Homo sapiens) (UniProt P68371+Q9H4B7+P0DPH7+P68366+Q13509+Q71U36+P04350+Q3ZCM7+P07437+P68363+Q9BQE3+Q6PEY2+Q13885+Q9BVA1+Q9BUF5)
- METHOD_DESCRIPTION: Inhibition of tubulin polymerization
- Format: protein-complex assay
The source made the active and inactive calls. No cut-off for these calls is given here.

{"columns": ["SUBSTANCE_SMILES", "Activity"],
 "data": [
  ["COc1ccc(-c2coc(C=O)c2-c2cc(OC)c(OC)c(OC)c2)cc1", "Active"],
  ["COc1ccc(-c2c(-c3cc(OC)c(OC)c(OC)c3)coc2C=O)cc1", "Active"],
  ["COc1ccc(-c2cocc2-c2cc(OC)c(OC)c(OC)c2)cc1O", "Active"]
]}

The origin of these recorded values is ChEMBL document CHEMBL1146182.
